- TARGET_DESC: AgSla1-D1-D2
- METHOD_NOTES: SPOT peptide array binding signal intensity (averaged, normalized) (arbitrary units (background-subtracted, floor 0; scale differs between SH3 domains)); higher = stronger binding of the SH3 domain to the peptide
VALUE_KIND: SPOT peptide array binding signal intensity

The examples below pair each entry with its known result.
GTIARPLFLVVLFFI = ≤ 0
QTREPNEPPPPSPAM = ≤ 0

[in] Please report SPOT peptide array binding signal intensity for the following binder: QPQRTAPKPPISAPR
[out] ≤ 0

Where these numbers come from: the supplement of paper PMC4466140
